test_target: T1, VLP-hCLDN6 (human) (UniProt P56747)
T1 sequence: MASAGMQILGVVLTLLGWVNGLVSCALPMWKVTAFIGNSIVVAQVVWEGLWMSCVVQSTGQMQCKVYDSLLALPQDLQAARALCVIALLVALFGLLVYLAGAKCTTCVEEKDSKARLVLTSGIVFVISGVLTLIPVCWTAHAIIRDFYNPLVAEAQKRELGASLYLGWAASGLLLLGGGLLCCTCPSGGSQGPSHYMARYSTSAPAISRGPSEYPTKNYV
test_method_notes: ELISA, coated VLP-hCLDN6, 100 ul antibody sample (second well), HRP-Protein A
measurement_kind: OD450
Form rule: numeric answer, no unit written next to it.

Example results:
{"binder": "humanized antibody hAb-13 (antibody, V domains shown) VH: EVKLVESGGGLVKPGGSLRLSCAASGFTFNSYTMSWVRQTPAKRLEWVVTISSGGGRTYYPDSVKGRFTISRDNAKNTLYLQMSSLRAEDTAVYYCIRGDYRYDGFAYWGQGTLVTVSS VL: DIQMTQSPSSLSASVGDRVTITCRASENIDSYLAWYQQKPGKSPQLLVYASTLLVDGVPSRFSGSRSGTQFSLTISSLQPEDVARYYCQHYYSIPYTFGSGTKLEIK", "measurement_kind": "OD450", "recorded_value": 2.26}
{"binder": "humanized antibody hAb-24 (antibody, V domains shown) VH: EVKLVESGGGLVKPGGSLRLSCAASGFTFNSYTMSWVRQTPAKRLEWVVTISSGGGRTYYPDSVKGRFTISRDNARNTLYLQMSSLRAEDTAVYYCIRGDYRYDGFAYWGQGTLVTVSS VL: DIQMTQSPSSLSASVGDRVTITCRASENIDSYLAWYQQKPGKSPQLLVYASTLLQDGVPSRFSGSRSGTQFTLTISSLQPEDFATYYCQHYYSIPYTFGSGTKLEIK", "measurement_kind": "OD450", "recorded_value": 1.87}
{"binder": "humanized antibody hAb-14 (antibody, V domains shown) VH: EVKLVESGGGLVQPGGSLRLSCAASGFTFNSYTMSWVRQAPGKRLEWVVTISSGGGRTYYPDSVKGRFTISRDNAKNTLYLQMSSLRAEDTAVYYCIRGDYRYDGFAYWGQGTLVTVSS VL: DIQMTQSPSSLSASVGDRVTITCRASENIDSYLAWYQQKPGKSPQLLVYASTLLQDGVPSRFSGSRSGTDFTLTISSLQPEDVATYYCQHYYSIPYTFGSGTKLEIK", "measurement_kind": "OD450", "recorded_value": 0.99}

Task: Quick one: OD450 for humanized antibody hAb-18 (antibody, V domains shown) VH: EVKLVESGGGLVQPGGSLRLSCAASGFTFNSYTMSWVRQTPAKRLEWVVTISSGGGRTYYPDSVKGRFTISRDNAKNTLYLQMSSLRAEDTAVYYCIRGDYRYDGFAYWGQGTLVTVSS VL: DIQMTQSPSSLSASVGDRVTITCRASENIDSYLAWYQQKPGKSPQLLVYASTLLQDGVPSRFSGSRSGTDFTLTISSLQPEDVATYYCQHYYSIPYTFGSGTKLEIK ?
Result: 1.52

Task: Request the reported OD450 associated with humanized antibody hAb-9 (antibody, V domains shown) VH: EVKLVESGGGLVKPGGSLRLSCAASGFTFNSYTMSWVRQAPGKRLEWVVTISSGGGRTYYPDSVKGRFTISRDNAKNTLYLQMSSLRAEDTAVYYCIRGDYRYDGFAYWGQGTLVTVSS VL: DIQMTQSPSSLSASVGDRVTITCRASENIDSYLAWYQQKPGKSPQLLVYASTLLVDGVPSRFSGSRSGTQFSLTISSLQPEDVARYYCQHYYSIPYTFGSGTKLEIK
Result: 1.94

Task: Which measured OD450 value corresponds to humanized antibody hAb-22 (antibody, V domains shown) VH: EVKLVESGGGLVKPGGSLRLSCAASGFTFNSYTMSWVRQTPAKRLEWVVTISSGGGRTYYPDSVKGRFTISRDNARNTLYLQMSSLRAEDTAVYYCIRGDYRYDGFAYWGQGTLVTVSS VL: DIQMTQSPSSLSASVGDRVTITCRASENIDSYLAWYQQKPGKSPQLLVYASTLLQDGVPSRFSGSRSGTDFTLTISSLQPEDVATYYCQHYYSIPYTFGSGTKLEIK ?
Result: 1.65

Task: Request the reported OD450 associated with humanized antibody hAb-10 (antibody, V domains shown) VH: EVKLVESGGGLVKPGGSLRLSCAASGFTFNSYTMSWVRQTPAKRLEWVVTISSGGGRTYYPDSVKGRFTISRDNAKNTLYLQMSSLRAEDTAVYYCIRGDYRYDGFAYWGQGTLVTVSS VL: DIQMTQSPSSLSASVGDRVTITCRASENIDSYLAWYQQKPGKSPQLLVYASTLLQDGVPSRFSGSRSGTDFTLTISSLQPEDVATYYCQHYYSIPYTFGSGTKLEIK
Result: 1.51

Task: # get_value(readout='OD450', item= humanized antibody hAb-7 (antibody, V domains shown) VH: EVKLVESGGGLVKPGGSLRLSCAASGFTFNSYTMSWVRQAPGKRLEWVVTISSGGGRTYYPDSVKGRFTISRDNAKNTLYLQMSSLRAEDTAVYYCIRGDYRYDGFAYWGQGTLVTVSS VL: DIQMTQSPSSLSASVGDRVTITCRASENIDSYLAWYQQKPGKSPQLLVYASTLLQDGVPSRFSGSRSGTQFTLTISSLQPEDVARYYCQHYYSIPYTFGSGTKLEIK )
Result: 1.91

Task: Given humanized antibody hAb-6 (antibody, V domains shown) VH: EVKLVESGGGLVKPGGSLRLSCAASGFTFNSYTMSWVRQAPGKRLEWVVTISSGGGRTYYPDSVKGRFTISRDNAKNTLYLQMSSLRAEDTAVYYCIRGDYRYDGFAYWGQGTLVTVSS VL: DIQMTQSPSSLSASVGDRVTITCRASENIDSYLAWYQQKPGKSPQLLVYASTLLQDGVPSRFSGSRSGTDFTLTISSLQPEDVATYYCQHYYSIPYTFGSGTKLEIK , state its recorded OD450.
Result: 1.61

Task: Which OD450 value belongs to humanized antibody hAb-17 (antibody, V domains shown) VH: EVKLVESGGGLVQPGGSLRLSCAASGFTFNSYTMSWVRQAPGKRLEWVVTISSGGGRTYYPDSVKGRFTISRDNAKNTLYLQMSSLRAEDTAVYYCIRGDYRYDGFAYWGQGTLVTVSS VL: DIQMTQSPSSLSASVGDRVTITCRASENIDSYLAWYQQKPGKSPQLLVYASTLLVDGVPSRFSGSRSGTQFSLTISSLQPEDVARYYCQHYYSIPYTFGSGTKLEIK ?
Result: 1.78

Task: Reported OD450, binder humanized antibody hAb-21 (antibody, V domains shown) VH: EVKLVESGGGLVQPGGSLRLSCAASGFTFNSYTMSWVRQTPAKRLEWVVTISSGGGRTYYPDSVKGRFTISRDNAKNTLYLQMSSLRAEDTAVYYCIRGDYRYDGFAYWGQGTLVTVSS VL: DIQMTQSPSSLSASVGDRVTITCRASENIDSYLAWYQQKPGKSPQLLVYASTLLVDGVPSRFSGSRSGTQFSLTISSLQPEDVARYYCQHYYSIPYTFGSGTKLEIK : ____
Result: 2.45

All figures here come from patent EP4707304A1.
